# target_under_test: T1, hKLRF1 (human, UniProt Q9NZS2 1-231)
# T1 construct: Overexpressed on HEK293 cells
# T1 sequence: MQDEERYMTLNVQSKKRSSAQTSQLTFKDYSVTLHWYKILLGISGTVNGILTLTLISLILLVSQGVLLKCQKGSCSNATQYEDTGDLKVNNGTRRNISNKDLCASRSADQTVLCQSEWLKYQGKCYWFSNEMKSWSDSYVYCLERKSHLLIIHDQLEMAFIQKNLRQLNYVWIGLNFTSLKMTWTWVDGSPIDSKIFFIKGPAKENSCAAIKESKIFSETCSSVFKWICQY
# assay_notes: flow cytometry, HEK293 transfectants, 100 nM antibody;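 note: antibody applied at a saturating level and incubated with cells for 30 min at room temperature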
parameter_measured: % of CD161 binding (%)
Record the value in %, omitting the unit from your answer.

binder	% of CD161 binding (%)
Ab19 (antibody, human IgG1, V domains shown, IgG purified from yeast culture) VH: QVQLVESGGGLVKPGGSLRLSCAASGFTFSQYYMSWIRQAPGKGLEWVSYISPSGATIYYADSVKGRFTISRDNAKNSLYLQMNSLRAEDTAVYYCARSLMATGTHLYFDLWGRGTLVTVSS VL: DIQLTQSPSSVSASVGDRVTITCRASQGISSWLAWYQQKPGKAPKLLIYAASALQSGVPSRFSGSGSGTDFTLTISSLQPEDFATYYCQQVTSAPPYTFGGGTKVEIK	0.305
Ab1 (antibody, human IgG1, V domains shown, IgG purified from yeast culture) VH: EVQLLESGGGLVQPGGSLRLSCAASGFAFSTYAMSWVRQAPGKGLEWVSAISAAGGTTYYADSVKGRFTISRDNSKNTLYLQMNSLRAEDTAVYYCAKPLDSSLWADFDLWGRGTLVTVSS VL: DIQMTQSPSSVSASVGDRVTITCRASQGIDSWLAWYQQKPGKAPKLLIYAASSLQSGVPSRFSGSGSGTDFTLTISSLQPEDFATYYCQQASVLPITFGGGTKVEIK	0.073
Ab2 (antibody, human IgG1, V domains shown, IgG purified from yeast culture) VH: EVQLLESGGGLVQPGGSLRLSCAASGFAFSTYAMSWVRQAPGKGLEWVSAISGVGGTTYYADSVKGRFTISRDNSKNTLYLQMNSLRAEDTAVYYCAKPLDSSLWADFDLWGRGTLVTVSS VL: DIQLTQSPSSVSASVGDRVTITCRASQGISSWLAWYQQKPGKAPKLLIYYASSLQDGVPSRFSGSGSGTDFTLTISSLQPEDFATYYCQQASVLPITFGGGTKVEIK	0.032
Ab10 (antibody, human IgG1, V domains shown, IgG purified from yeast culture) VH: EVQLLESGGGLVQPGGSLRLSCAASGFTFSQYAMSWVRQAPGKGLEWVSAISAVGGSTYYADSVKGRFTISRDNSKNTLYLQMNSLRAEDTAVYYCAKPLDSSQWADFDLWGRGTLVTVSS VL: DIQLTQSPSSVSASVGDRVTITCRASQDISSWLAWYQQKPGKAPKLLIYAASALQSGVPSRFSGSGSGTDFTLTISSLQPEDFATYYCQQADVLPITFGGGTKVEIK	0.046
Ab3 (antibody, human IgG1, V domains shown, IgG purified from yeast culture) VH: EVQLLESGGGLVQPGGSLRLSCAASGFTFERYAMSWVRQAPGKGLEWVSAISAAGGTTYYADSVKGRFTISRDNSKNTLYLQMNSLRAEDTAVYYCAKPLDSSQWADFDLWGRGTLVTVSS VL: DIQLTQSPSSVSASVGDRVTITCRASQDISSWLAWYQQKPGKAPKFLIYAASALQSGVPSRFSGSGSGTDFTLTISSLQPEDFATYYCQQALVLPITFGGGTKVEIK	0.011

In: Tell me % of CD161 binding reported for Ab13 (antibody, human IgG1, V domains shown, IgG purified from yeast culture) VH: QVQLVESGGGLVKPGGSLRLSCAASGFTFANYYMSWIRQAPGKGLEWVSYISPSGATIAYADSVKGRFTISRDNAKNSLYLQMNSLRAEDTAVYYCARSLMATGTHLYFDLWGRGTLVTVSS VL: DIQLTQSPSSVSASVGDRVTITCRASSGISSWLAWYQQKPGKAPKLLIYAASELQSGVPSRFSGSGSGTDFTLTISSLQPEDFATYYCQQATSFPPYTFGGGTKVEIK
Out: 0.106

In: Tell me % of CD161 binding reported for Ab5 (antibody, human IgG1, V domains shown, IgG purified from yeast culture) VH: EVQLLESGGGLVQPGGSLRLSCAASGFTFGQYAMSWVRQAPGKGLEWVSAISAVGGTTAYADSVKGRFTISRDNSKNTLYLQMNSLRAEDTAVYYCAKPLDSSLWADFQLWGRGTLVTVSS VL: DIQLTQSPSSVSASVGDRVTITCRASQDISSWLAWYQQKPGKAPKLLIYFASSLQSGVPSRFSGSGSGTDFTLTISSLQPEDFATYYCQQASKLPITFGGGTKVEIK
Out: 0.059

Numbers sourced from patent US20250243281A1.
